Every entry's value here was drawn from patent US20240391954A1.

# TARGET_OF_ASSAY: human MC4R receptor (human, UniProt P32245 1-332)
# Sequence (P32245 whole entry): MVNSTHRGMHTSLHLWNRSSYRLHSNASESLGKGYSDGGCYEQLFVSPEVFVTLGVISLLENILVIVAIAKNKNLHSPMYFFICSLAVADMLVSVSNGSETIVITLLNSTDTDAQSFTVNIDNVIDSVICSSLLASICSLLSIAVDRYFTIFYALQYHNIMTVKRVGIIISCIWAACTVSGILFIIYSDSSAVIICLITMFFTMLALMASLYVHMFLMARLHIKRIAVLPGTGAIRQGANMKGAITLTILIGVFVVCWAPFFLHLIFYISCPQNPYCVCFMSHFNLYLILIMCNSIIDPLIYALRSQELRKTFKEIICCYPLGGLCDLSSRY
# PROTOCOL_DETAILS: cell-based or functional assay
Starred links: 1 amine or outer side, 2 acyl side, 3 side chain; linkers in the order of their positions; H or OH if unused. Positions of bridges follow the written chain, without caps; N, C: chain ends. Non-standard residues stand in square brackets, D forms with d. Primed or numbered codes have the meaning given here. dTyr(4-OMe)″ = O-methyl-D-tyrosine, COc1ccc(C[C@@H](N[*:1])C(=O)[*:2])cc1; dDip = N[C@@H](C(=O)O)C(c1ccccc1)c1ccccc1; dPhe(4-Br) = N[C@H](Cc1ccc(Br)cc1)C(=O)O; Cit = NC(=O)NCCC[C@H](N)C(=O)O; Aib = CC(C)(N)C(=O)O
Kindly supply the reported % max activation values for the records listed here.
Please give a number only; it is taken to be in %.

-- ask // query % max activation value for entry Ac-RC[dA]R[dPhe(4-Br)][dR][dW]C-NH2 (disulfide 2-8) [CTX-1252]
-- reply 4.4

-- ask Next entry: Ac-RC[dA]R[dPhe(4-Br)]R[dW]CK-NH2 (disulfide 2-8; SMILES CC(=O)N[C@@H](CCCNC(=N)N)C(=O)N[C@H]1CSSC[C@@H](C(=O)N[C@@H](CCCCN)C(N)=O)NC(=O)[C@@H](Cc2c[nH]c3ccccc23)NC(=O)[C@H](CCCNC(=N)N)NC(=O)[C@@H](Cc2ccc(Br)cc2)NC(=O)[C@H](CCCNC(=N)N)NC(=O)[C@@H](C)NC1=O) [CTX-1218]
-- reply 77

-- ask Next entry: Ac-RC[Aib][Cit][dTyr(4-OMe)″]R[dW]C-NH2 (disulfide 2-8) [CTX-1600]
-- reply 58

-- ask Next entry: Ac-RC[dA]R[dDip]R[dW]C-NH2 (disulfide 2-8) [CTX-1280]
-- reply 4
